# Test system: H3K27me3 in G401 cells
# Protocol summary: H3K27me3 AlphaLISA assay in G401 cells
# Type: cell-based
# Assay conditions: Homo sapiens, G-401, 144 h, 6 days with compound
Endpoint: IC50
Could you kindly put the unit after your number?

Query: Look up and report measured IC50 (H3K27me3 in G401 cells) for the following compound: CN(C)C(=O)Cn1cc(-c2ccc([C@@H]3CN(C4CCc5cccc(F)c54)C[C@H]3N(C)C)cn2)cn1 (mixture of isomers)
Response: 158 nM

Query: Under H3K27me3 in G401 cells, report IC50 for CN(C)[C@@H]1CN(C2CCc3cccc(F)c32)C[C@H]1c1ccc(N2CCN(c3ccccn3)CC2)cc1 (mixture of isomers)
Response: 2300 nM

Query: Name the value of IC50 reported for CNC(=O)Cn1cc(-c2ccc([C@@H]3CN(C4CCc5cccc(F)c54)C[C@H]3N(C)C)cn2)cn1 (mixture of isomers) when tested on H3K27me3 in G401 cells.
Response: 151 nM

Query: Answer briefly: IC50 recorded on H3K27me3 in G401 cells for CCS(=O)(=O)N1CCN(c2ccc([C@H]3CN(C4CCc5cccc(F)c54)C[C@@H]3N(C)C)cc2)CC1 (mixture of isomers)
Response: 182 nM

Query: Give reported IC50 for CN1CCN(c2cccc3c([C@H]4CN(C5CCc6cccc(F)c65)C[C@@H]4N(C)C)cn(C)c23)CC1=O (mixture of isomers) (H3K27me3 in G401 cells)
Response: 186 nM

Query: Give measured IC50 for CC(=O)N1CCN(c2ccc([C@H]3CN(C4CCc5cccc(F)c54)C[C@@H]3N(C)C)cc2)CC1 (stereo partly drawn) (H3K27me3 in G401 cells).
Response: 32.6 nM

###

# Target entity: EED (Homo sapiens, UniProt O75530)
# Sequence (O75530 whole entry): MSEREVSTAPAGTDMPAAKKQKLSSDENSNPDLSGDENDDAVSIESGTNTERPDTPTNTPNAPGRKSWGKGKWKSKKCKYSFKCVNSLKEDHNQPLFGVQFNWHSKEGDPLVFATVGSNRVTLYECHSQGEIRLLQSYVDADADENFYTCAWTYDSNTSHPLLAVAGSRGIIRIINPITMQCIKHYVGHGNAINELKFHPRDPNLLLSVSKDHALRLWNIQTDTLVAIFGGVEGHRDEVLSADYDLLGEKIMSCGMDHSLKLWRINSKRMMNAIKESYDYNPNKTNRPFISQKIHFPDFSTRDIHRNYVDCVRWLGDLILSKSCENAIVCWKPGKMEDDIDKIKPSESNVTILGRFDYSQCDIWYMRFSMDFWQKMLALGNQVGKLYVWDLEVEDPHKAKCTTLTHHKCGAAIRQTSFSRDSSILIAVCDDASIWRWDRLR
# Protocol summary: EED TR-FRET Binding Assay (modified LanthaScreen competition assay)
pIC50: −log10 of the molar value.
Think of 8 as a floor: if pIC50 stands on it or above, it is class 1; beneath it, class 0.

Query: Does CNC(=O)c1ccc([C@H]2CN(C3CCc4cccc(F)c43)C[C@@H]2N(C)C)cc1 (mixture of isomers) [Example 24] have a reported pIC50 of at least 8?
Response: class 0

Query: Decide: pIC50 of CN(C)[C@H]1CN(C2CCc3cccc(F)c32)C[C@@H]1c1cn(C)c2c(C(=O)O)cccc12 (stereo partly shown) [Example 79] >= 8?
Response: class 1

Query: Assess whether reported pIC50 for CN(C)[C@H]1CN([C@@H]2CCc3cccc(F)c32)C[C@@H]1c1cn(C)c2cccnc12 (mixture of isomers) [Example 143] sits at 8 or higher.
Response: class 0

Query: Please indicate if the recorded pIC50 for CN(C)[C@H]1CN(C2CCc3cccc(F)c32)C[C@@H]1c1ccc(-c2cnn(CC(N)=O)c2)cc1 (mixture of isomers) [Example 71] meets or exceeds 8.
Response: class 1

Query: Check the entry CN(C)[C@@H]1CN(C2CCc3cccc(F)c32)C[C@H]1c1ccc(Br)cc1 (mixture of isomers) [Example 6] : does pIC50 equal or exceed 8?
Response: class 1

###

# System: H3K27me3 in G401 cells
# Protocol summary: H3K27me3 AlphaLISA assay in G401 cells
# Type: cell-based
# Assay conditions: Homo sapiens, G-401, 144 h, 6 days with compound
Endpoint: IC50 (nM)
Provide only the numeric value, understood in nM.

Query: For H3K27me3 in G401 cells, give the measured IC50 of the entry CN(C)C(=O)c1ccc2c([C@H]3CN(C4CCc5cccc(F)c54)C[C@@H]3N(C)C)cn(C)c2c1 (mixture of isomers)
Response: 62.6

Query: Output reported IC50 of the compound CN(C)[C@H]1CN(C2CCc3cccc(F)c32)C[C@@H]1c1cn(C)c2c(C(=O)N3CCNCC3)cccc12 (mixture of isomers) on H3K27me3 in G401 cells.
Response: 120

Query: Look up and report IC50, with H3K27me3 in G401 cells as system, for CN(C)[C@H]1CN(C2CCc3cccc(F)c32)C[C@@H]1c1cn(C)c2c(C(=O)N3CCN(S(=O)(=O)N4CC(C#N)C4)CC3)cccc12 (stereo partly drawn)
Response: 61.5

Query: // output IC50; input CN(C)[C@H]1CN(C2CCc3cccc(F)c32)C[C@@H]1c1cn(C)c2cc(C(=O)N3CC(O)C3)ccc12 (mixture of isomers) ; system H3K27me3 in G401 cells
Response: 84

Query: Give IC50 only, for CN(C)[C@H]1CN(C2CCc3cccc(F)c32)C[C@@H]1c1cn(C)c2cc(C(=O)N3CC[C@@H](O)C3)ccc12 (mixture of isomers) , using H3K27me3 in G401 cells data.
Response: 70.2

Query: GET IC50 where system = H3K27me3 in G401 cells and item = CN(C)[C@H]1CN(C2CCc3cccc(F)c32)C[C@@H]1c1ccc(-c2cnn(C)c2)cc1 (mixture of isomers)
Response: 129

###

# System: Pfeiffer cells
# Protocol summary: CTG cell viability assay (CellTiter-Glo)
# Type: cell-based
# Assay conditions: Homo sapiens, 240 h; Pfeiffer cells, 10 days with compound, CellTiter-Glo; read-out: Cell Proliferation IC50
Provide the recorded log10 IC50 for the entries that follow.
Values are log10 of IC50 in nM.

Query: Provide one value: measured log10 IC50 of CN(C)[C@H]1CN(C2CCc3cccc(F)c32)C[C@@H]1c1cn(C)c2c(C(=O)O)cccc12 (some centres unmarked) [Example 79]
Response: 3.01

Query: Recall and state the measured log10 IC50 for CN(C)[C@H]1CN(C2CCc3cccc(F)c32)C[C@@H]1c1cn(C)c2c(C(=O)N3CC(O)C3)cccc12 (mixture of isomers) [Example 106] .
Response: 1.87

Query: For the compound CN(C)[C@H]1CN(C2CCc3cccc(F)c32)C[C@@H]1c1cn(C)c2c(C(=O)N3CC(S(C)(=O)=O)C3)cccc12 (mixture of isomers) , give its measured log10 IC50 value.
Response: 2.05

Query: Specify reported log10 IC50 for the compound shown: CN(C)[C@H]1CN(C2CCc3cccc(F)c32)C[C@@H]1c1ccc(C(=O)N2CC[C@H](O)C2)cc1 (mixture of isomers)
Response: 2.97

Query: Quote log10 IC50 reported for CNC(=O)c1cccc2c([C@H]3CN(C4CCc5cccc(F)c54)C[C@@H]3N(C)C)cn(C)c12 (mixture of isomers) please.
Response: 2.48

###

Consider the following compounds; for each one, report its pIC50.
# Tested on: Pfeiffer cells
# Protocol summary: CTG cell viability assay (CellTiter-Glo)
# Assay type: cell-based
# Assay conditions: Homo sapiens, 240 h; Pfeiffer cells, 10 days with compound, CellTiter-Glo; read-out: Cell Proliferation IC50
Lab note — pIC50 values are minus log10 of concentrations in M.

Query: Provide one value: measured pIC50 of CN(C)[C@@H]1CN(C2CCc3cccc(F)c32)C[C@H]1c1ccc(-c2ncco2)cc1 (mixture of isomers)
Response: 5.95

Query: State, in one line, measured pIC50 of CN(C)[C@H]1CN([C@@H]2C[C@H](F)c3cccc(F)c32)C[C@@H]1c1ccc(S(C)(=O)=O)cc1 (mixture of isomers)
Response: 6.12

Query: Give me measured pIC50, please, for this compound: CN(C)[C@@H]1CN(C2CCc3cccc(F)c32)C[C@H]1c1ccc(-c2cnn(CC(=O)N3CC(O)C3)c2)nc1 (mixture of isomers)
Response: 6.02

Query: # return recorded pIC50 for input CN(C)[C@H]1CN(C2CCc3cccc(F)c32)C[C@@H]1c1cn(C)c2ccccc12 (stereo partly shown)
Response: 5.72

Query: Supply reported pIC50 belonging to this compound: CN(C)[C@H]1CN(C2CCc3cccc(F)c32)C[C@@H]1c1cn(C)c2cc(C(=O)N3C[C@H](O)[C@@H](O)C3)ccc12 (mixture of isomers)
Response: 5.50

Query: Return pIC50 for the following compound: CN(C)[C@@H]1CN(C2CCc3cccc(F)c32)C[C@H]1c1ccc(N2CCN(S(=O)(=O)c3cn(C)cn3)CC2)cc1 (mixture of isomers)
Response: 7.00

Query: Give recorded pIC50. CN(C)[C@@H]1CN(C2CCc3cccc(F)c32)C[C@H]1c1ccc2c(c1)OCO2 (mixture of isomers)
Response: 6.02

Query: Return reported pIC50. Input compound: CN(C)[C@@H]1CN(C2CCc3cccc(F)c32)C[C@H]1c1ccc(N2CCNCC2)cc1 (mixture of isomers)
Response: 6.73

Query: Give the value of pIC50 reported for the following: Cc1cc([C@H]2CN(C3CCc4cccc(F)c43)C[C@@H]2N(C)C)ccc1C#N (mixture of isomers)
Response: 5.58

Query: Consider the compound CC(=O)N1CCN(C(=O)c2ccc3c([C@H]4CN(C5CCc6cccc(F)c65)C[C@@H]4N(C)C)cn(C)c3c2)CC1 (mixture of isomers) and give its recorded pIC50.
Response: 5.82

Query: Note down pIC50 recorded for CN(C)[C@@H]1CN(C2CCc3cccc(F)c32)C[C@H]1c1ccc(N2CCN(C(=O)CS(N)(=O)=O)CC2)nc1 (mixture of isomers)
Response: 6.52

Query: Hello, please tell me recorded pIC50 for this one: CN(C)[C@H]1CN(C2CCc3cccc(F)c32)C[C@@H]1c1cn(C)c2c(C(=O)N3CC(F)C3)cccc12 (stereo partly shown) [Example 102]
Response: 7.13

Query: Supply pIC50 value. Item: CNC(=O)c1ccc([C@H]2CN(C3CCc4cccc(F)c43)C[C@@H]2N(C)C)cc1 (mixture of isomers)
Response: 5.53
